tested on: MEG-01 (Chronic Myelogenous Leukemia); assay: Bliss excess, mean over the matrix (fraction); higher = more synergy;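 note: after 72 h of two-drug dosing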
Could you please report measured Bliss excess for the items listed next?
The reply should be a number, written without any unit.

In: Report measured Bliss excess; entry is C[C@@H]1COCCN1c1cc(C2([S@](C)(=N)=O)CC2)nc(-c2ccnc3[nH]ccc23)n1 [AZD6738] + O=C(c1cc(Cc2n[nH]c(=O)c3ccccc23)ccc1F)N1CCN(C(=O)C2CC2)CC1 [Olaparib] (first compound max 10 µM, 7x7, partner max 10 µM)
Out: -0.0458

In: Provide only the value of recorded Bliss excess for CC1(C)CCC(CN2CCN(c3ccc(C(=O)NS(=O)(=O)c4ccc(NCC5CCOCC5)c([N+](=O)[O-])c4)c(Oc4cnc5[nH]ccc5c4)c3)CC2)=C(c2ccc(Cl)cc2)C1 [Venetoclax] + CS(=O)(=O)CCNCc1ccc(-c2ccc3ncnc(Nc4ccc(OCc5cccc(F)c5)c(Cl)c4)c3c2)o1 [Lapatinib] (first compound max 1 µM, 7x7, partner max 10 µM)
Out: -0.0101
